Reported melting point values for a set of molecules

1) CC(C)(C)c1ccc(CN(O)C(=O)Cc2ccc(NS(C)(=O)=O)cc2)cc1
161 to 163 °C
2) COc1cc(CNC(=S)N(O)Cc2ccc(C(C)(C)C)cc2)ccc1NS(C)(=O)=O
112.5 to 115 °C

Asked: Reported melting point for CC(C)(C)c1ccc(CN(O)C(=S)NCc2ccc(NS(C)(=O)=O)c(F)c2)cc1 : what is it?
Given back: 124 to 126 °C

###

Biological target: VR1 (Rattus norvegicus)
Construct: expressed in transfected cells; host or cells: Chinese Hamster Ovary cells (CHO, ATCC CCL-61), Tet-off inducible expression
Assay: 45Ca influx test in CHO cells expressing VR1, agonistic activity
Assay type: cell-based
Settings: 45Ca uptake
Assay readout: EC50 (nM)
Supply the numeric figure in nM, leaving out any unit text.

1) CC(C)(C)c1ccc(CC(=O)N(O)Cc2ccc(NS(C)(=O)=O)cc2)cc1 [Compound 63]
1960

Below: the item to evaluate.
Asked: Item CC(C)(C)c1ccc(CN(O)C(=S)NCc2ccc(NS(C)(=O)=O)cc2F)cc1 [Compound 33] has what recorded EC50?
Given back: 12300

###

Biological target: VR1 (Rattus norvegicus, UniProt O35433)
Construct: expressed in transfected cells; host or cells: Chinese Hamster Ovary cells (CHO, ATCC CCL-61), Tet-off inducible expression
Sequence (O35433 whole entry): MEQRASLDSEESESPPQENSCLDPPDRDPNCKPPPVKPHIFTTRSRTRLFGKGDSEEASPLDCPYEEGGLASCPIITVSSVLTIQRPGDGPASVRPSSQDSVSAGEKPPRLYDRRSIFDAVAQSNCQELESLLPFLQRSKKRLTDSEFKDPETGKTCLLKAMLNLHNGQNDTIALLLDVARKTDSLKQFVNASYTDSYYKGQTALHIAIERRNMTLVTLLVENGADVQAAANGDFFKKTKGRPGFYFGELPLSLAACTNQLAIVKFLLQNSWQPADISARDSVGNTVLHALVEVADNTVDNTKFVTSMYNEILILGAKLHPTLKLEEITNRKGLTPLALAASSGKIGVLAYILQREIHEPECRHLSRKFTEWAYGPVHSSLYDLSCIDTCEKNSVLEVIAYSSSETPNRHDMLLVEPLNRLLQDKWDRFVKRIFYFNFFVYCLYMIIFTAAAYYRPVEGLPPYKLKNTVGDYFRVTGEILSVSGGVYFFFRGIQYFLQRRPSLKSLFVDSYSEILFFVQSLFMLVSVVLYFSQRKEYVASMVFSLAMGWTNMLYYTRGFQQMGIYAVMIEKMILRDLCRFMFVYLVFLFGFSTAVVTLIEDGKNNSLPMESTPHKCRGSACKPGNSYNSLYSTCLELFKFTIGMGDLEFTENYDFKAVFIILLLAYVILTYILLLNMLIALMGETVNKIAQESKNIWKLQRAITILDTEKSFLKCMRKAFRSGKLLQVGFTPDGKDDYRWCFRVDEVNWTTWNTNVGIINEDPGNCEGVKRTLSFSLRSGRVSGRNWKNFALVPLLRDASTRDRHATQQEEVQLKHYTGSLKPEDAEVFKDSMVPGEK
Experiment: 45Ca influx test in CHO cells expressing VR1, antagonistic activity against 50 nM capsaicin
Format: cell-based
Details: 45Ca uptake stimulated with 50 nM capsaicin
Recorded IC50 values for a group of compounds are listed next.
Give a bare numeral; the unit nM is implied.

1. CC(C)(C)c1ccc(CN(O)C(=S)NCc2ccc(NS(C)(=O)=O)c([N+](=O)[O-])c2)cc1 [Compound 32]
635
2. Oc1cc2c(cc1O)CN(C(=S)NCCc1ccc(Cl)cc1)CCC2 [Capsazepine, reference compound]
520
3. Cc1ccc(CC(COC(=O)C(C)(C)C)CN(O)C(=S)NCc2ccc(NS(C)(=O)=O)cc2Cl)cc1C (stereo not shown) [Compound 39]
757

Could you now look at the following compound, please?
Asked: Need IC50 of CC(C)(C)c1ccc(CN(O)C(=S)NCc2ccc(NS(C)(=O)=O)c(Cl)c2)cc1 [Compound 31] , thanks.
Given back: 579
